- condition_context: in ethanol, 301.05 K
reported_metric: solubility (mole fraction)
Give bare numbers.

Request: I would be grateful if you could share the reported solubility (mole fraction) for "CO[C@H]1O[C@@H]2O[C@@]3(C)CC[C@H]4[C@H](C)CC[C@@H]([C@H]1C)[C@@]24OO3" .
Result: 0.0764

###

- condition_context: in ethanol, 303.95 K
reported_metric: solubility (mole fraction)
Give bare numbers.

Request: I would be grateful if you could share the reported solubility (mole fraction) for "CO[C@H]1O[C@@H]2O[C@@]3(C)CC[C@H]4[C@H](C)CC[C@@H]([C@H]1C)[C@@]24OO3" .
Result: 0.0903

###

- condition_context: in ethanol, 313.2 K
reported_metric: solubility (mole fraction)
Answers are plain numbers.

Request: I would be grateful if you could share the reported solubility (mole fraction) for "CO[C@H]1O[C@@H]2O[C@@]3(C)CC[C@H]4[C@H](C)CC[C@@H]([C@H]1C)[C@@]24OO3" .
Result: 0.164

###

- condition_context: in ethanol, 310.45 K
reported_metric: solubility (mole fraction)
Numbers only.

Request: I would be grateful if you could share the reported solubility (mole fraction) for "CO[C@H]1O[C@@H]2O[C@@]3(C)CC[C@H]4[C@H](C)CC[C@@H]([C@H]1C)[C@@]24OO3" .
Result: 0.133

###

- condition_context: in methanol, 322.05 K
reported_metric: solubility (mole fraction)
Numbers only.

Request: I would be grateful if you could share the reported solubility (mole fraction) for "CO[C@H]1O[C@@H]2O[C@@]3(C)CC[C@H]4[C@H](C)CC[C@@H]([C@H]1C)[C@@]24OO3" .
Result: 0.355

###

- condition_context: in ethanol, 293.95 K
reported_metric: solubility (mole fraction)
One number for each entry.

Request: I would be grateful if you could share the reported solubility (mole fraction) for "CO[C@H]1O[C@@H]2O[C@@]3(C)CC[C@H]4[C@H](C)CC[C@@H]([C@H]1C)[C@@]24OO3" .
Result: 0.0492

###

- condition_context: in ethanol, 296.95 K
reported_metric: solubility (mole fraction)
One number for each entry.

Request: I would be grateful if you could share the reported solubility (mole fraction) for "CO[C@H]1O[C@@H]2O[C@@]3(C)CC[C@H]4[C@H](C)CC[C@@H]([C@H]1C)[C@@]24OO3" .
Result: 0.0592

###

- condition_context: in methanol, 294.05 K
reported_metric: solubility (mole fraction)
Numbers only.

Request: I would be grateful if you could share the reported solubility (mole fraction) for "CO[C@H]1O[C@@H]2O[C@@]3(C)CC[C@H]4[C@H](C)CC[C@@H]([C@H]1C)[C@@]24OO3" .
Result: 0.0343

###

- condition_context: in ethanol, 322.65 K
reported_metric: solubility (mole fraction)
Answers are plain numbers.

Request: I would be grateful if you could share the reported solubility (mole fraction) for "CO[C@H]1O[C@@H]2O[C@@]3(C)CC[C@H]4[C@H](C)CC[C@@H]([C@H]1C)[C@@]24OO3" .
Result: 0.315

###

- condition_context: in ethanol, 316.25 K
reported_metric: solubility (mole fraction)
Numbers only.

Request: I would be grateful if you could share the reported solubility (mole fraction) for "CO[C@H]1O[C@@H]2O[C@@]3(C)CC[C@H]4[C@H](C)CC[C@@H]([C@H]1C)[C@@]24OO3" .
Result: 0.2

###

- condition_context: in methanol, 300.75 K
reported_metric: solubility (mole fraction)
Answers are plain numbers.

Request: I would be grateful if you could share the reported solubility (mole fraction) for "CO[C@H]1O[C@@H]2O[C@@]3(C)CC[C@H]4[C@H](C)CC[C@@H]([C@H]1C)[C@@]24OO3" .
Result: 0.0519

###

- condition_context: in ethanol, 308.45 K
reported_metric: solubility (mole fraction)
Give bare numbers.

Request: I would be grateful if you could share the reported solubility (mole fraction) for "CO[C@H]1O[C@@H]2O[C@@]3(C)CC[C@H]4[C@H](C)CC[C@@H]([C@H]1C)[C@@]24OO3" .
Result: 0.117

###

- condition_context: in methanol, 299.05 K
reported_metric: solubility (mole fraction)

Request: I would be grateful if you could share the reported solubility (mole fraction) for "CO[C@H]1O[C@@H]2O[C@@]3(C)CC[C@H]4[C@H](C)CC[C@@H]([C@H]1C)[C@@]24OO3" .
Result: 0.0463

###

- condition_context: in ethanol, 289.05 K
reported_metric: solubility (mole fraction)
Numbers only.

Request: I would be grateful if you could share the reported solubility (mole fraction) for "CO[C@H]1O[C@@H]2O[C@@]3(C)CC[C@H]4[C@H](C)CC[C@@H]([C@H]1C)[C@@]24OO3" .
Result: 0.0395

###

- condition_context: in methanol, 308.25 K
reported_metric: solubility (mole fraction)
Numbers only.

Request: I would be grateful if you could share the reported solubility (mole fraction) for "CO[C@H]1O[C@@H]2O[C@@]3(C)CC[C@H]4[C@H](C)CC[C@@H]([C@H]1C)[C@@]24OO3" .
Result: 0.0988

###

- condition_context: in methanol, 312.95 K
reported_metric: solubility (mole fraction)

Request: I would be grateful if you could share the reported solubility (mole fraction) for "CO[C@H]1O[C@@H]2O[C@@]3(C)CC[C@H]4[C@H](C)CC[C@@H]([C@H]1C)[C@@]24OO3" .
Result: 0.149

###

- condition_context: in methanol, 291.15 K
reported_metric: solubility (mole fraction)
Give bare numbers.

Request: I would be grateful if you could share the reported solubility (mole fraction) for "CO[C@H]1O[C@@H]2O[C@@]3(C)CC[C@H]4[C@H](C)CC[C@@H]([C@H]1C)[C@@]24OO3" .
Result: 0.0295

###

- condition_context: in ethanol, 328.65 K
reported_metric: solubility (mole fraction)
Numbers only.

Request: I would be grateful if you could share the reported solubility (mole fraction) for "CO[C@H]1O[C@@H]2O[C@@]3(C)CC[C@H]4[C@H](C)CC[C@@H]([C@H]1C)[C@@]24OO3" .
Result: 0.442

###

- condition_context: in ethanol, 326.05 K
reported_metric: solubility (mole fraction)
One number for each entry.

Request: I would be grateful if you could share the reported solubility (mole fraction) for "CO[C@H]1O[C@@H]2O[C@@]3(C)CC[C@H]4[C@H](C)CC[C@@H]([C@H]1C)[C@@]24OO3" .
Result: 0.387
